Where these numbers come from: patent US20100216715A1

Biological target: T1, human beta-Klotho (human, UniProt Q86Z14 1-1044)
T1 sequence (looked up): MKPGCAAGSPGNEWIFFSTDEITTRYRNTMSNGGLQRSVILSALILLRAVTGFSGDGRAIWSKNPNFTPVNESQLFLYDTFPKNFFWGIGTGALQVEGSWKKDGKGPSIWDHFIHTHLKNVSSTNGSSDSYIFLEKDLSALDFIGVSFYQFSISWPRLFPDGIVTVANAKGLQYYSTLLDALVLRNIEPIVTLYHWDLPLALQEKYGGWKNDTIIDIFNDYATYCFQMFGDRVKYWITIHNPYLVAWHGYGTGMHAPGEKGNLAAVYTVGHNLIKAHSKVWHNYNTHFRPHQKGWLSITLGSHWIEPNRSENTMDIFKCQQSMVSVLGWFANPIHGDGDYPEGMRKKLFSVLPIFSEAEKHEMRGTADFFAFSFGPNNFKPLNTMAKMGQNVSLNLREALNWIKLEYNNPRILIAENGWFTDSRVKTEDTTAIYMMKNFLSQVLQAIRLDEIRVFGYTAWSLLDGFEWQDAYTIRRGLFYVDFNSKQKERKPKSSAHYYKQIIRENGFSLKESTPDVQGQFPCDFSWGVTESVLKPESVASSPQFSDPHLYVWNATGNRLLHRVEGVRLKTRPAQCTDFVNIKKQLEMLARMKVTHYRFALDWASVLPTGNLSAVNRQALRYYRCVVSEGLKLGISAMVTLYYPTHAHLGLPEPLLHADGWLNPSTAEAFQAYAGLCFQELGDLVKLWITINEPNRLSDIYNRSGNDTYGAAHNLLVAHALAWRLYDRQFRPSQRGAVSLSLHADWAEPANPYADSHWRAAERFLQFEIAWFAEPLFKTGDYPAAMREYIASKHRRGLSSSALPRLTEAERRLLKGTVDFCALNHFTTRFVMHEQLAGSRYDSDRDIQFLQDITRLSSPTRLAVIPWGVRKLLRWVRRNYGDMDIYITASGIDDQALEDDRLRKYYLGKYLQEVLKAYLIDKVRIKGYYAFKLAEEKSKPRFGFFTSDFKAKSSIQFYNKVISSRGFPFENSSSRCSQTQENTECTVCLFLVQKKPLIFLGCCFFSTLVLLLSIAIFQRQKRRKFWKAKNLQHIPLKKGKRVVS
Assay: cell-based or functional assay
quantity_name: pERK-HEK293-Beta-klotho without HSA [EC50 (nM)] Median Value

[
  {
    "binder": "(K56R, K59R, K69R, K122R) FGF21 (ligand) HPIPDSSPLLQFGGQVRQRYLYTDDAQQTEAHLEIREDGTVGGAADQSPESLLQLRALRPGVIQILGVRTSRFLCQRPDGALYGSLHFDPEACSFRELLLEDGYNVYQSEAHGLPLHLPGNRSPHRDPAPRGPARFLPLPGLPPALPEPPGILAPQPPDVGSSDPLSMVGPSQGRSPSYAS",
    "recorded_result": "12 nM"
  },
  {
    "binder": "(179F, 180E, 181R) Met-FGF21 (ligand) MHPIPDSSPLLQFGGQVRQRYLYTDDAQQTEAHLEIREDGTVGGAADQSPESLLQLKALKPGVIQILGVKTSRFLCQRPDGALYGSLHFDPEACSFRELLLEDGYNVYQSEAHGLPLHLPGNKSPHRDPAPRGPARFLPLPGLPPALPEPPGILAPQPPDVGSSDPLSMVGPSQGRSPSFER",
    "recorded_result": "5.9 nM"
  },
  {
    "binder": "(M168A) Met-FGF21 (ligand) MHPIPDSSPLLQFGGQVRQRYLYTDDAQQTEAHLEIREDGTVGGAADQSPESLLQLKALKPGVIQILGVKTSRFLCQRPDGALYGSLHFDPEACSFRELLLEDGYNVYQSEAHGLPLHLPGNKSPHRDPAPRGPARFLPLPGLPPALPEPPGILAPQPPDVGSSDPLSAVGPSQGRSPSYAS",
    "recorded_result": "100 nM"
  }
]
